The measured values listed here are drawn from patent US8835392B2.

Biological target: 20S proteasome β1 caspase-like activity (LLE-MCA) (Homo sapiens, UniProt P28072+Q99436)
Construct: Proteasomes were isolated from red blood cells
Assay: Protease assay, caspase-like activity of isolated 20S proteasomes
Details: isolated 20S proteasome; LLE-MCA 50 μM; 15 min pre-incubation; read-out: IC50 β1 Caspase-like (E)
pIC50: −log10 of the molar value.
measured_property: pIC50

P: CC(C)C[C@H](NC(=O)OCc1ccccc1)C(=O)N[C@@H](CC(C)C)C(=O)N[C@@H](CC(C)C)C(O)C(=O)Nc1ccccc1 (stereo partly drawn)
Q: CC(C)C[C@H](NC(=O)OCc1ccccc1)C(=O)N[C@@H](CC(C)C)C(=O)N[C@@H](CC(C)C)C(=O)C(=O)NCc1ccccc1
[in] Input pair: P , Q . Output: entry with lower pIC50. Indicate your choice by writing its label.
[out] P
(P: 5.39, Q: 5.76)
